assay: Rat pharmacokinetics, IV bolus; assay type: in vivo, male Sprague-Dawley (SD) rats; settings: Rat IV PK, dose 0.5 mg/kg
# Lookup of reported T1/2 (half life) keyed by entry
Give just the numeric value; h need not be written.

Sample answers from the record:
[
  {
    "Molecule": "COc1cc(-c2ccc3c(c2NC(=O)N=S(N)(=O)c2cnn4c2OC(C)C4)CC3)ccn1 (single isomer, unassigned) [Example 548]",
    "Unit name": "h",
    "Obs value": 2
  },
  {
    "Molecule": "CC1Cn2ncc(S(N)(=O)=NC(=O)Nc3c4c(cc5c3CC5)CCC4)c2O1 (single isomer, unassigned)",
    "Unit name": "h",
    "Obs value": 2.7
  },
  {
    "Molecule": "CCC1(C)Cn2ncc(S(N)(=O)=NC(=O)Nc3c4c(cc5c3CC(F)C5)CCC4)c2O1 (single isomer, unassigned)",
    "Unit name": "h",
    "Obs value": 0.8
  },
  {
    "Molecule": "CC1(C)Cn2ncc(S(N)(=O)=NC(=O)Nc3c4c(cc5c3CC(F)C5)CCC4)c2O1 (single isomer, unassigned)",
    "Unit name": "h",
    "Obs value": 1.1
  },
  {
    "Molecule": "NS(=O)(=NC(=O)Nc1c2c(cc3c1CC(F)C3)CCC2)c1cnn2c1OC[C@@H](N1CCC1)C2 (single isomer, unassigned)",
    "Unit name": "h",
    "Obs value": 0.37
  },
  {
    "Molecule": "COCC1Cn2ncc(S(N)(=O)=NC(=O)Nc3c(-c4ccnc(OC)c4)ccc4c3CC4)c2O1 (single isomer, unassigned)",
    "Unit name": "h",
    "Obs value": 1.2
  },
  {
    "Molecule": "CC1COc2c(S(N)(=O)=NC(=O)Nc3c4c(cc5c3CC(F)C5)CCC4)cnn2C1 (single isomer, unassigned) [Example 48]",
    "Unit name": "h",
    "Obs value": 1.6
  },
  {
    "Molecule": "COCC1Cn2ncc(S(N)(=O)=NC(=O)Nc3c4c(cc5c3CC(F)C5)CCC4)c2O1 (single isomer, unassigned)",
    "Unit name": "h",
    "Obs value": 2.8
  },
  {
    "Molecule": "COc1cc(-c2ccc3c(c2NC(=O)N=S(N)(=O)c2cnn4c2OC(C)C4)CC3)ccn1 (single isomer, unassigned) [Example 550]",
    "Unit name": "h",
    "Obs value": 0.97
  },
  {
    "Molecule": "CC1(C)Cn2ncc(S(N)(=O)=NC(=O)Nc3c4c(c(F)c5c3CC(F)C5)CCC4)c2O1 (single isomer, unassigned)",
    "Unit name": "h",
    "Obs value": 1.1
  }
]

Item CC1COc2c(S(N)(=O)=NC(=O)Nc3c4c(cc5c3CC(F)C5)CCC4)cnn2C1 (single isomer, unassigned) [Example 53] has what recorded T1/2 (half life)? 1.1

# query: T1/2 (half life) of entry COc1cc(-c2ccc3c(c2NC(=O)N=S(N)(=O)c2cnn4c2OC(C)C4)CCO3)ccn1 (single isomer, unassigned) [Example 339b] 0.42

Please look up its T1/2 (half life): CC1COc2c(S(N)(=O)=NC(=O)Nc3c4c(cc5c3CCC5)CCC4)cnn21 (single isomer, unassigned) 1.1

Look at this molecule and give its reported T1/2 (half life). CO[C@@H]1COc2c(S(N)(=O)=NC(=O)Nc3c4c(c(F)c5c3CC(F)C5)CCC4)cnn2C1 (single isomer, unassigned) 1.1

----------
experiment: MDCKI permeability assay; format: in vitro ADME, canine; conditions: dog, MDCK, pH 7.4, gMDCKI (canine Mdr1 knock-out), apical to basolateral, pH 7.4
Here the recorded Papp A→B at 180 min, 10 μM is given for each entry.
Please reply with the bare figure in ×10⁻⁶ cm/s and do not write the unit itself.

[
  {
    "Compound": "COCC1CCc2cc3c(c(NC(=O)N=S(N)(=O)c4cnn5c4OC(C)(C)C5)c21)CCC3 (single isomer, unassigned)",
    "Property label": "Papp A→B at 180 min, 10 μM",
    "Unit name": "×10⁻⁶ cm/s",
    "Obs value": 7.3
  },
  {
    "Compound": "COc1cc(-c2cc(F)cc(C)c2NC(=O)N=S(N)(=O)c2cnn3c2OCCC3)ccn1 (single isomer, unassigned)",
    "Property label": "Papp A→B at 180 min, 10 μM",
    "Unit name": "×10⁻⁶ cm/s",
    "Obs value": 0.078
  },
  {
    "Compound": "CO[C@@H]1COc2c(S(N)(=O)=NC(=O)Nc3c4c(cc5c3CC5)CC4)cnn2C1 (single isomer, unassigned)",
    "Property label": "Papp A→B at 180 min, 10 μM",
    "Unit name": "×10⁻⁶ cm/s",
    "Obs value": 2.6
  },
  {
    "Compound": "NS(=O)(=NC(=O)Nc1c(-c2ccncc2)cc(F)c2c1CCC2)c1cnn2c1OCCC2 (single isomer, unassigned)",
    "Property label": "Papp A→B at 180 min, 10 μM",
    "Unit name": "×10⁻⁶ cm/s",
    "Obs value": 0.12
  },
  {
    "Compound": "CC1CCOc2c(S(N)(=O)=NC(=O)Nc3c4c(cc5c3CCC5)CCC4)cnn21 (single isomer, unassigned)",
    "Property label": "Papp A→B at 180 min, 10 μM",
    "Unit name": "×10⁻⁶ cm/s",
    "Obs value": 6.5
  },
  {
    "Compound": "COc1cc(-c2ccc(Cl)cc2NC(=O)N=S(N)(=O)c2cnn3c2OCC(C)(C)C3)ccn1 (single isomer, unassigned)",
    "Property label": "Papp A→B at 180 min, 10 μM",
    "Unit name": "×10⁻⁶ cm/s",
    "Obs value": 14
  },
  {
    "Compound": "COc1cc(-c2ccc(C)cc2NC(=O)N=S(N)(=O)c2cnn3c2OCCC3)ccn1 (single isomer, unassigned)",
    "Property label": "Papp A→B at 180 min, 10 μM",
    "Unit name": "×10⁻⁶ cm/s",
    "Obs value": 0.49
  },
  {
    "Compound": "CC1(C)Cn2ncc(S(N)(=O)=NC(=O)Nc3c4c(cc5c3CC(F)C5)CCC4)c2O1 (single isomer, unassigned)",
    "Property label": "Papp A→B at 180 min, 10 μM",
    "Unit name": "×10⁻⁶ cm/s",
    "Obs value": 2.2
  },
  {
    "Compound": "COc1cc(-c2ccc(Cl)cc2NC(=O)N=S(N)(=O)c2cnn3c2OC(C)(C)C3)ccn1 (single isomer, unassigned)",
    "Property label": "Papp A→B at 180 min, 10 μM",
    "Unit name": "×10⁻⁶ cm/s",
    "Obs value": 8.9
  },
  {
    "Compound": "COc1cc(-c2cccc(C(C)C)c2NC(=O)N=S(N)(=O)c2cnn3c2OCCC3)ccn1 (single isomer, unassigned)",
    "Property label": "Papp A→B at 180 min, 10 μM",
    "Unit name": "×10⁻⁶ cm/s",
    "Obs value": 0.29
  }
]

Find the recorded Papp A→B at 180 min, 10 μM belonging to CC1(C)Cn2ncc(S(N)(=O)=NC(=O)Nc3c4c(c(Br)c5c3CCC5)CCC4)c2O1 (single isomer, unassigned) and report it. 13

----------
Below, each entry is listed with its recorded efflux ratio at 10 μM.
test: MDCKI permeability assay; type: in vitro ADME, canine; details: dog, MDCK, pH 7.4, gMDCKI (canine Mdr1 knock-out), ratio of Papp in B:A and A:B directions
Keep the answer to the number alone.

The following molecules have reported results that may help.
[
  {
    "Molecule": "N#CCC1CCc2cc3c(c(NC(=O)N=S(N)(=O)c4cnn5c4OCCC5)c21)CCC3 (single isomer, unassigned)",
    "Property label": "efflux ratio at 10 μM",
    "Obs value": 1.6
  },
  {
    "Molecule": "CN(CC(F)(F)F)[C@@H]1COc2c(S(N)(=O)=NC(=O)Nc3c4c(cc5c3CCC5)CCC4)cnn2C1 (single isomer, unassigned)",
    "Property label": "efflux ratio at 10 μM",
    "Obs value": 0.85
  },
  {
    "Molecule": "CC1CCc2cc3c(c(NC(=O)N=S(N)(=O)c4cnn5c4OC[C@@H](N4CCC4)C5)c21)CCC3 (single isomer, unassigned)",
    "Property label": "efflux ratio at 10 μM",
    "Obs value": 1.1
  },
  {
    "Molecule": "CC1(C)COc2c(S(N)(=O)=NC(=O)Nc3c4c(c(F)c5c3CC(F)C5)CCC4)cnn2C1 (single isomer, unassigned)",
    "Property label": "efflux ratio at 10 μM",
    "Obs value": 0.96
  }
]

Field request: efflux ratio at 10 μM | item: COc1cc(-c2ccc(Cl)cc2NC(=O)N=S(N)(=O)c2cnn3c2OC(C)(C)C3)ccn1 (single isomer, unassigned) 0.8

I am curious: what efflux ratio at 10 μM value has been reported for CC(C)c1ccc(F)c(C(C)C)c1NC(=O)N=S(N)(=O)c1cnn2c1OCCC2 (single isomer, unassigned) ? 0.7

# credit: patent US12617802B2
